Tested on: MS2 coat protein
testDetails: apparent KD of MS2 coat protein, switch OFF state (with FMN for OFF switches, without FMN for ON switches); designed switch direction (-1 OFF switch, 1 ON switch): 1; higher = weaker reporter binding
conditionSet: FMN input: 0 or 200 uM; Eterna round: R93 (includes R88 designs)
recordedMetric: apparent KD of MS2 coat protein (µM)
Dear colleague, please return just the value in µM, with no unit written.

Study these solved cases before continuing.
• AAAAAAAAAAGUGAGGAUAUGGGAAAAUUAACAUGAGGAUCACCCAUGUGAUAAAAAAAAAAAAACCAGAAGGUACAAAAAAAAA [Original 73%, More Wateronthemoon, 1] = 0.0423
• AGGAAACAUGAGGAUCACCCAUGUAAAAAAUGGGUAGGAUAUGCGAAAAGAAAAAGAAAAGCAGAAGGGCCAAGAA [62%, Something completely different, 3] = 0.444
• AACCAACAUGAGGAUCACCCAUGUCAACCCAAGCGAGGAUAUCCGAGAAUAACAAUGGGAGGAGAAGGCGCGACCU [ss1] = 0.039
• AAAGAAAAACUAGAGGAUAUCCGAGUGGUAACAUGAGGAUCACCCAUGUGACGAAAGGAACAUGAGGAGAAGGCUAGAAGAAAAA [JL Nando mod 9] = 0.315
• AUAAAACAUGAGGAUCACCCAUGUAGAAAUAUGGGAGGAUAUACUAGAUCGAAAGAUCUAGUAGAAGGCCUUUAUA [JL Mod of Eli 6] = 0.0459

Qu. State its apparent KD of MS2 coat protein on MS2 coat protein: CGAAAGGAGAGAGAGGAUAUCCAAAGGAAAACAUGAGGAUCACCCAUGUAGAAGGUAGGAGAUUGGGAGAAGGCUCAAGAGAGUA [salish99-ss2-149]
Ans. 0.0363

* * *

Each record here notes measured apparent KD of MS2 coat protein.
Tested on: MS2 coat protein
testDetails: apparent KD of MS2 coat protein; higher = weaker reporter binding
conditionSet: Eterna round: R107; input ligand: theophylline 2 mM
Quick note: number first, unit second.

Study these solved cases before continuing.
• AACAUGAGGAUCACCCAUGUCGGGCCGGAGCGAGGACCGGUACGGCCGCCACUCGAGACAUGAGGAUCACCCAUGUAGGGCGAAA [Exclusion Tryptophan A GF21] = 189 nM
• AGCCAUGGAAACAUGGCGGCGGCAUGAGCGCGAGGACCGGUACGGCCGCCACUCGGGCGACAUGAGGAUCACCCAUGUUCCUCAU [ETA NP+V+V2 #22 Same Structure] = 451 nM
• AACAUGAGGAUCACCCAUGUCUGAACUGAAGGAGCGCUAAAUAAGGCAGGUAGGUCGCGGAAUUUUGUGUGCAUAUGCAUAUGGG [9.I] = 29.8 nM

Qu. Using the record for UGUAUGUGAUCUGAUACCAGCCUCAUAGCUUGAGGAUCACCCAAGUGGAGCGGAAACGCUGGCCCUUGGCAGCAGAUCGCAUACU [TheoBS 1 #AlternativeMS2] , report its apparent KD of MS2 coat protein.
Ans. 13.5 nM

Qu. Using the record for UAUCCACAUGAGGAUCACCCAUGUGAGGAAGGAGCGGUGAAUGCACCAGGUAGGUCGCCUUGCUGAGGACAGCCGGUGGAUUCGU [Exclusion - Arginine A (Freestyle 25)] , report its apparent KD of MS2 coat protein.
Ans. 15.8 nM

Qu. Using the record for UGUACUAUGUGAAGGAGCGCCACAUGAGGAUCACCCAUGUAAACAUGAGGAUCACCCAUGUGGCAGGUAGGUCGCACAUAGUACU [ArgBS - Double MS2 - I don't expect this to work] , report its apparent KD of MS2 coat protein.
Ans. 227 nM
